We begin with a simple list: items and their reported kon.
Target: recombinant full-length human alpha synuclein monomer (human, UniProt P37840 1-140)
Test: SPR, Biacore T200, as in Example 3; full-length IgG4P injected
State just the number; it will be interpreted in M⁻¹ s⁻¹.

Recorded kon of VR6470 gL3-N33R; gH23-S56N-N102H (antibody, human IgG4 S228P, kappa, V domains shown, Full-length humanized human IgG4P) VH: EVQLLESGGGLVQPGGSLRLSCAVSGIDLSSHDMYWVRQAPGKGLEYIGAIYASGNTYYASWAKGRFTISRDNSKNTVYLQMNSLRAEDTAVYYCARIHYGHSGGLWGQGTLVTVSS VL: DIQMTQSPSSLSASVGDRVTITCQASQSVYKNRYLAWFQQKPGKAPKQLIYGASTLASGVPSRFSGSGSGTQFTLTISSLQPEDFATYYCAGYKGGRNDGFAFGGGTKVEIKR , please.
3.48e+06

Recorded kon of VR6470 gL3-N33R; gH36-S56N-N102H (antibody, human IgG4 S228P, kappa, V domains shown, Full-length humanized human IgG4P) VH: EVQLLESGGGLVQPGGSLRLSCAVSGIDLSSHDMYWVRQAPGKGLEYIGAIYASGNTYYASWAKGRFTISRDSSKNTLYLQMNSLRAEDTAVYYCARIHYGHSGGLWGQGTLVTVSS VL: DIQMTQSPSSLSASVGDRVTITCQASQSVYKNRYLAWFQQKPGKAPKQLIYGASTLASGVPSRFSGSGSGTQFTLTISSLQPEDFATYYCAGYKGGRNDGFAFGGGTKVEIKR , please.
4.97e+06

Recorded kon of VR6470 gL3; gH23-S56N-N102H (antibody, human IgG4 S228P, kappa, V domains shown, Full-length humanized human IgG4P) VH: EVQLLESGGGLVQPGGSLRLSCAVSGIDLSSHDMYWVRQAPGKGLEYIGAIYASGNTYYASWAKGRFTISRDNSKNTVYLQMNSLRAEDTAVYYCARIHYGHSGGLWGQGTLVTVSS VL: DIQMTQSPSSLSASVGDRVTITCQASQSVYKNNYLAWFQQKPGKAPKQLIYGASTLASGVPSRFSGSGSGTQFTLTISSLQPEDFATYYCAGYKGGRNDGFAFGGGTKVEIKR , please.
966000

Recorded kon of 6470gL3gH23 IgG4P (antibody, V domains shown, Full-length humanized human IgG4P; also called VR6470 gL3) VH: EVQLLESGGGLVQPGGSLRLSCAVSGIDLSSHDMYWVRQAPGKGLEYIGAIYASGSTYYASWAKGRFTISRDNSKNTVYLQMNSLRAEDTAVYYCARIHYGNSGGLWGQGTLVTVSS VL: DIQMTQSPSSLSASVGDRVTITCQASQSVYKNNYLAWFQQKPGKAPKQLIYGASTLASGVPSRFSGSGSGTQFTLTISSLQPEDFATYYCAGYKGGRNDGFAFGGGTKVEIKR , please.
1.2e+06

Recorded kon of VR6470 gL3; gH36-S56N-N102H (antibody, human IgG4 S228P, kappa, V domains shown, Full-length humanized human IgG4P) VH: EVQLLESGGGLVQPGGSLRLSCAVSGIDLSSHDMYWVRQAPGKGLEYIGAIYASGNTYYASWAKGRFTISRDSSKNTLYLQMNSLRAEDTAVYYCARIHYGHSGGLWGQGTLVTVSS VL: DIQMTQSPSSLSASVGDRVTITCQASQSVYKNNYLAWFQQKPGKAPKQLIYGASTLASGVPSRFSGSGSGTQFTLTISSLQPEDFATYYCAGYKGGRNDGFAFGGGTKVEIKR , please.
1.19e+06

Recorded kon of 6470gL3gH36 IgG4P (antibody, V domains shown, Full-length humanized human IgG4P; also called VR6470 gL3; VR6470) VH: EVQLLESGGGLVQPGGSLRLSCAVSGIDLSSHDMYWVRQAPGKGLEYIGAIYASGSTYYASWAKGRFTISRDSSKNTLYLQMNSLRAEDTAVYYCARIHYGNSGGLWGQGTLVTVSS VL: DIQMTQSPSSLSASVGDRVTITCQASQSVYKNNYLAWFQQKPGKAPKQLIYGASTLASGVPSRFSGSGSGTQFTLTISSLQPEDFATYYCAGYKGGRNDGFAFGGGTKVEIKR , please.
1.15e+06
